Biological target: T1, human glycophorin A on human red blood cells or red blood cell membranes (human, UniProt P02724 20-150)
T1 construct: whole, on cells; also called hRBC; human RBC membranes
T1 sequence (looked up): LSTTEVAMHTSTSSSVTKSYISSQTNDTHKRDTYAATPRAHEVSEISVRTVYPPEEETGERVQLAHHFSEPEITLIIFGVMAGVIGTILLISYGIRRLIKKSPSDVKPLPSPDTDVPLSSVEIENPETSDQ
Test: SPR (Biacore), Fab on human RBC membranes; * not accurate, instrument limit
Examples of binders with documented kon follow.
OBSERVABLE: kon (M⁻¹ s⁻¹)

[
  {
    "BINDER": "TPP-7793, affinity matured 6C12 Fab (Fab, V domains shown, Tested as Fab) VH: EVQLVQSGAEVKKPGASVKVSCKASGYTFTRYTIHWVRQAPGQGLEWMGYINPSSGYTRYNPKFKGRVTMTRDKSTSTAYMELRSLRSDDTAVYYCWTGTRDYWGQGTTVTVSS VL: DIQLTQSPSFLSASVGDRVTITCRASSSVSYIYWFQQKPGKAPKLLIYATSTLQSGVPSRFSGSGSGTEYTLTISSLQPEDFATYYCHQRNSFPYTFGQGTKLEIK",
    "EXPERIMENTAL VALUE": "2.05e+07"
  },
  {
    "BINDER": "TPP-7789, affinity matured 6C12 Fab (Fab, V domains shown, Tested as Fab) VH: EVQLVQSGAEVKKPGASVKVSCKASGYTFTTYTIHWVRQAPGQGLEWMGYINPSSGYTRYNPKFKHRVTMTRDKSTSTAYMELRSLRSDDTAVYYCWTGTRDYWGQGTTVTVSS VL: DIQLTQSPSFLSASVGDRVTITCRASSSVRYIYWFQQKPGKAPKLLIYATSTLQSGVPSRFSGSGSGTEYTLTISSLQPEDFATYYCHQRNSFPYTFGQGTKLEIK",
    "EXPERIMENTAL VALUE": "1.61e+07"
  },
  {
    "BINDER": "TPP-7776, affinity matured 6C12 Fab (Fab, V domains shown, Tested as Fab) VH: EVQLVQSGAEVKKPGASVKVSCKASGYTFTTYAIHWVRQAPGQGLEWMGYINPSSGYTRYNPKFKGRVTMTRDKSTSTAYMELRSLRSDDTAVYYCQTGTRDYWGQGTTVTVSS VL: DIQLTQSPSFLSASVGDRVTITCRASSSVRYIYWFQQKPGKAPKLLIYATSTLRSGVPSRFSGSGSGTEYTLTISSLQPEDFATYYCHQRNSFPYTFGQGTKLEIK",
    "EXPERIMENTAL VALUE": "1.17e+07"
  },
  {
    "BINDER": "TPP-7794, affinity matured 6C12 Fab (Fab, V domains shown, Tested as Fab) VH: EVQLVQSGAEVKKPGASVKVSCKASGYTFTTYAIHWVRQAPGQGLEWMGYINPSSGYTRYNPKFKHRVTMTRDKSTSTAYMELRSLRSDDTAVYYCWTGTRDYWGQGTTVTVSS VL: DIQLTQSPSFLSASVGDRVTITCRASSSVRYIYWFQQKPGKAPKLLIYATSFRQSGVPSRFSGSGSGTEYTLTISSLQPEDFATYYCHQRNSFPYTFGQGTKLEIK",
    "EXPERIMENTAL VALUE": "2.22e+07"
  },
  {
    "BINDER": "TPP-7797, affinity matured 6C12 Fab (Fab, V domains shown, Tested as Fab) VH: EVQLVQSGAEVKKPGASVKVSCKASGYTFTTYTIHWVRQAPGQGLEWMGYINPSSGYTRYNPKFKGRVTMTRDKSTSTAYMELRSLRSDDTAVYYCWTGRRDYWGQGTTVTVSS VL: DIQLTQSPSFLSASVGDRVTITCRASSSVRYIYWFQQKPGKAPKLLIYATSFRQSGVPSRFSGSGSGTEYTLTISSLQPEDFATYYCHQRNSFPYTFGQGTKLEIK",
    "EXPERIMENTAL VALUE": "6.49e+07"
  },
  {
    "BINDER": "TPP-7796, affinity matured 6C12 Fab (Fab, V domains shown, Tested as Fab) VH: EVQLVQSGAEVKKPGASVKVSCKASGYTFTTYTIHWVRQAPGQGLEWMGYINPKSGWTRYNPKFKGRVTMTRDKSTSTAYMELRSLRSDDTAVYYCQTGTRDYWGQGTTVTVSS VL: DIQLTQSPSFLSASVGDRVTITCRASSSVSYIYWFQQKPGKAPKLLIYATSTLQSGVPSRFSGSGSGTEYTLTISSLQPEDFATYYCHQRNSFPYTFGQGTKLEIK",
    "EXPERIMENTAL VALUE": "2.15e+07"
  },
  {
    "BINDER": "TPP-7782, affinity matured 6C12 Fab (Fab, V domains shown, Tested as Fab) VH: EVQLVQSGAEVKKPGASVKVSCKASGYTFTTYTIHWVRQAPGQGLEWMGYINPSSGYTRYNPKFKGRVTMTRDKSTSTAYMELRSLRSDDTAVYYCQTGTRDYWGQGTTVTVSS VL: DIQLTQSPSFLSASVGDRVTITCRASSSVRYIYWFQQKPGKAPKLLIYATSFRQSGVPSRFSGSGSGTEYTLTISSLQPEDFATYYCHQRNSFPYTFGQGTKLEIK",
    "EXPERIMENTAL VALUE": "1.4e+07"
  },
  {
    "BINDER": "TPP-7778, affinity matured 6C12 Fab (Fab, V domains shown, Tested as Fab) VH: EVQLVQSGAEVKKPGASVKVSCKASGYTFTTYAIHWVRQAPGQGLEWMGYINPSSGYTRYNPKFKHRVTMTRDKSTSTAYMELRSLRSDDTAVYYCQTGTRDYWGQGTTVTVSS VL: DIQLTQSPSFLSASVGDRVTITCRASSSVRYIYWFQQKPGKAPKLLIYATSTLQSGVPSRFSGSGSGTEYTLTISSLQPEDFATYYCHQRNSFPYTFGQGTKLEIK",
    "EXPERIMENTAL VALUE": "1e+08"
  },
  {
    "BINDER": "TPP-7781, affinity matured 6C12 Fab (Fab, V domains shown, Tested as Fab) VH: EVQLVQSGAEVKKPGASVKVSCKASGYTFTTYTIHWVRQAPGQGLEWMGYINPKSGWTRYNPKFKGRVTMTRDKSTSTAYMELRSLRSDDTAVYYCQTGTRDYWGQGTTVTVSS VL: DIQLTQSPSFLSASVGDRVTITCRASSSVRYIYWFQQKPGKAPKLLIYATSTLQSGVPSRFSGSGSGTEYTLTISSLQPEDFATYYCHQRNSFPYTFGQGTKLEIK",
    "EXPERIMENTAL VALUE": "1.89e+07"
  }
]
